Where do these numbers come from? They come from ChEMBL document CHEMBL5634152.

test: Lipophilicity, logP of compound in n-octanol-water at 5 mg/ml incubated for 8 hrs by HPLC analysis; type: physicochemical
Recorded logP at 8 h values for a group of molecules are listed next.

record smiles: COc1cc(-n2ncc3ccc(-c4cccc5[nH]ccc45)cc32)cc(OC)c1OC
logP at 8 h: 3.1

record smiles: COc1cc(-n2ncc3ccc(-c4ccc(C)nc4)cc32)cc(OC)c1OC.Cl
logP at 8 h: 1.8

record smiles: COc1ccc2c(Nc3cc(OC)c(OC)c(OC)c3)n[nH]c2c1
logP at 8 h: 3.7

---

assay: Aqueous solubility of compound in pH 7.4 at 10 mg/ml by HPLC analysis; assay type: physicochemical; details: buffer
test readout: solubility (µg/mL)

record smiles: COc1cc(-n2ncc3ccc(-c4ccc(C)nc4)cc32)cc(OC)c1OC.Cl
test readout: solubility
unit symbol: µg/mL
result value: 149
